# System: KRAS-mutant PDC complex spheroid viability;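 also: viability read after seven days of compound exposure; 100% = DMSO vehicle-treated spheroids so lower means less viable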
# assayOverview: Anticancer human tumor 186277-243-T-J2-PDC patient-derived colon adenocarcinoma cell line growth inhibition [KRAS2]
# condition: second compound 10 µM; first compound 0.0316 µM; hits give low values
# Text: Multicellular complex tumor spheroid response to RAS pathway inhibitors in combination with a targeted agents in patient-derived cell lines with oncogenic KRAS variants from multiple cancer types A high-throughput screen of multi-cell type tumor spheroids was designed to identify active combinations of targeted small molecules and KRAS pathway inhibitors. […] Compounds. […] If the clinical Cmax for an agent had not been determined, the highest concentration tested was 10 microM. […]
recordedMetric: viability, T/C (%)
Respond with the bare value in %.

compound	endpointValue
CCN1CCN(Cc2ccc(Nc3ncc(F)c(-c4cc(F)c5nc(C)n(C(C)C)c5c4)n3)nc2)CC1 + C=CC(=O)N1CCN(c2nc(=O)n(-c3c(C)ccnc3C(C)C)c3nc(-c4c(O)cccc4F)c(F)cc23)C(C)C1	83.3

QUERY: Given CC(=O)Nc1cccc(-n2c(=O)n(C3CC3)c(=O)c3c(Nc4ccc(I)cc4F)n(C)c(=O)c(C)c32)c1 + C=CC(=O)N1CCN(c2nc(=O)n(-c3c(C)ccnc3C(C)C)c3nc(-c4c(O)cccc4F)c(F)cc23)C(C)C1 , state its recorded viability, T/C.
RESULT: 0.43

QUERY: Given CC(C)n1nc(-c2ccc3oc(N)nc3c2)c2c(N)ncnc21 + COc1cc2nc(C)nc(NC(C)c3cc(N)cc(C(F)(F)F)c3)c2cc1OC1CCOC1 , state its recorded viability, T/C.
RESULT: 21.1

QUERY: Given COc1cc(Nc2ncc3c(n2)-c2ccc(Cl)cc2C(c2c(F)cccc2OC)=NC3)ccc1C(=O)O + COc1cc2nc(C)nc(NC(C)c3cc(N)cc(C(F)(F)F)c3)c2cc1OC1CCOC1 , state its recorded viability, T/C.
RESULT: 14.1

QUERY: Given CC1COCCN1c1cc(-c2ccnn2C)c2ccnc(-c3ccn[nH]3)c2n1 (configuration not stated) + COc1cc2nc(C)nc(NC(C)c3cc(N)cc(C(F)(F)F)c3)c2cc1OC1CCOC1 , state its recorded viability, T/C.
RESULT: 7.22

QUERY: Given CC(=O)Nc1cccc(-n2c(=O)n(C3CC3)c(=O)c3c(Nc4ccc(I)cc4F)n(C)c(=O)c(C)c32)c1 + COc1cc2nc(C)nc(NC(C)c3cc(N)cc(C(F)(F)F)c3)c2cc1OC1CCOC1 , state its recorded viability, T/C.
RESULT: 0.23

QUERY: Given CC1(C)CCC(CN2CCN(c3ccc(C(=O)NS(=O)(=O)c4ccc(NCC5CCOCC5)c([N+](=O)[O-])c4)c(Oc4cnc5[nH]ccc5c4)c3)CC2)=C(c2ccc(Cl)cc2)C1 + C=CC(=O)N1CCN(c2nc(=O)n(-c3c(C)ccnc3C(C)C)c3nc(-c4c(O)cccc4F)c(F)cc23)C(C)C1 , state its recorded viability, T/C.
RESULT: 61.1

QUERY: Given CC1OCC2(CCN(c3cnc(Sc4ccnc(N)c4Cl)c(N)n3)CC2)C1N (configuration not stated) + CNCc1ccccc1-c1csc(C(C)Nc2nc(C)nc3cc(OC)c(OC)cc23)c1 , state its recorded viability, T/C.
RESULT: 0.18

QUERY: Given CCNC(=O)CC1N=C(c2ccc(Cl)cc2)c2cc(OC)ccc2-n2c(C)nnc21 (configuration not stated) + C=CC(=O)N1CCN(c2nc(=O)n(-c3c(C)ccnc3C(C)C)c3nc(-c4c(O)cccc4F)c(F)cc23)C(C)C1 , state its recorded viability, T/C.
RESULT: 75.8

QUERY: Given CC1COCCN1c1cc(-c2ccnn2C)c2ccnc(-c3ccn[nH]3)c2n1 (configuration not stated) + CC1OCC2(CCN(c3cnc(Sc4ccnc(N)c4Cl)c(N)n3)CC2)C1N , state its recorded viability, T/C.
RESULT: 10.5

QUERY: Given Cn1nccc1Nc1nccc(-c2cc3c(s2)C(C)(C)N(CCN2CCOCC2)C3=O)n1 + CC1OCC2(CCN(c3cnc(Sc4ccnc(N)c4Cl)c(N)n3)CC2)C1N , state its recorded viability, T/C.
RESULT: 86.8

QUERY: Given CC1OCC2(CCN(c3cnc(Sc4ccnc(N)c4Cl)c(N)n3)CC2)C1N (configuration not stated) + COc1cc2nc(C)nc(NC(C)c3cc(N)cc(C(F)(F)F)c3)c2cc1OC1CCOC1 , state its recorded viability, T/C.
RESULT: 93.6
